# System: CAKI-1
# Test name: minimum viability across doses, drug + dasatinib, relative to DMSO (fraction); higher = less growth inhibition
# Run conditions: treatment: drug + dasatinib (fixed dose, not stated); 5 days
Collected minimum viability across doses values appear next to each entry.
Lab note: record the figure alone, no unit after it.

Check out these entries, answers already filled in.
Given the compound CC(C)(C)Cn1c(N)nc2ccc(-c3[nH]c(C(C)(C)C)nc3-c3ccc(F)cc3)nc21.CS(=O)(=O)O.CS(=O)(=O)O + Cc1nc(Nc2ncc(C(=O)Nc3c(C)cccc3Cl)s2)cc(N2CCN(CCO)CC2)n1 , write its reported minimum viability across doses. 0.435

Quickly give me recorded minimum viability across doses for COCCOc1ccc2c(c1)ncn2-c1ccc2cccc(N3CCC(N)CC3)c2n1 + Cc1nc(Nc2ncc(C(=O)Nc3c(C)cccc3Cl)s2)cc(N2CCN(CCO)CC2)n1 0.2

Annotate the compound COCC[n+]1c2c(n(Cc3cnccn3)c1C)C(=O)c1ccccc1C2=O [YM155] + Cc1nc(Nc2ncc(C(=O)Nc3c(C)cccc3Cl)s2)cc(N2CCN(CCO)CC2)n1 with its measured minimum viability across doses. 0.00438

Answer with the recorded minimum viability across doses for the compound listed here: OCc1ccc(-c2ccc(-c3ccc(CO)s3)o2)s1 + Cc1nc(Nc2ncc(C(=O)Nc3c(C)cccc3Cl)s2)cc(N2CCN(CCO)CC2)n1 0.00172

Give minimum viability across doses for the following compound: O=C(O)c1ccc2c(c1)nc(Nc1cccc(Cl)c1)c1ccncc12 [cx-4945 (Silmitasertib)] + Cc1nc(Nc2ncc(C(=O)Nc3c(C)cccc3Cl)s2)cc(N2CCN(CCO)CC2)n1 0.033

Tell us which minimum viability across doses value is on record for CC1(C)CCC(c2ccc(Cl)cc2)=C(CN2CCN(c3ccc(C(=O)NS(=O)(=O)c4ccc(N[C@H](CCN5CCOCC5)CSc5ccccc5)c(S(=O)(=O)C(F)(F)F)c4)cc3)CC2)C1 [ABT-263 (Navitoclax)] + Cc1nc(Nc2ncc(C(=O)Nc3c(C)cccc3Cl)s2)cc(N2CCN(CCO)CC2)n1 0.555

Give the reported value of minimum viability across doses for this record: Cc1ccc(F)c(NC(=O)Nc2ccc(-c3cccc4[nH]nc(N)c34)cc2)c1 [Linifanib (ABT-869)] + Cc1nc(Nc2ncc(C(=O)Nc3c(C)cccc3Cl)s2)cc(N2CCN(CCO)CC2)n1 0.213

For the compound CN[C@@H]1C[C@H]2O[C@@](C)([C@@H]1OC)n1c3ccccc3c3c4c(c5c6ccccc6n2c5c31)C(=O)NC4 [Staurosporine] + Cc1nc(Nc2ncc(C(=O)Nc3c(C)cccc3Cl)s2)cc(N2CCN(CCO)CC2)n1 , give its reported minimum viability across doses. 0.00221

// below: minimum viability across doses requested for another compound
Please report minimum viability across doses for the following compound: Cc1[nH]c(/C=C2\C(=O)Nc3ccccc32)c(C)c1CCC(=O)O [TSU-68] + Cc1nc(Nc2ncc(C(=O)Nc3c(C)cccc3Cl)s2)cc(N2CCN(CCO)CC2)n1 0.595
